- System: Staphylococcus aureus (DSM 346)
- EXPERIMENT_DESCRIPTION: Antimicrobial assay (MIC), S. aureus
- Assay type: cell-based
- CONDITION_DESCRIPTION: overnight incubation, n.i. = no inhibition up to 67 μg/mL
METRIC_NAME: MIC

INSERT INTO measurements (compound, result_value) VALUES
  ('CC(C)=CCC(CC1=CC(=O)OC1)C(=O)O (stereo not drawn)', 'n.i.'),
  ('CC(C)=CCc1cc(C=O)ccc1O', 'n.i.'),
  ('COc1ccc([C@H](O)[C@H](C)O)cc1', 'n.i.'),
  ('CC(C)=CC[C@H]1C=C(CO)C=COC1=O', 'n.i.'),
  ('COc1ccc(C(=O)C(C)O)cc1 (stereo not drawn) [Compound 12, 2-hydroxy-(4′-methoxy)-propiophenone]', 'n.i.'),
  ('CC(C)(O)[C@H]1C[C@@H](CC2=CC(=O)OC2)C(=O)O1', 'n.i.');

* * *

- System: Pichia anomala (DSM 6766)
- EXPERIMENT_DESCRIPTION: Antimicrobial assay (MIC), P. anomala
- Type: cell-based
- CONDITION_DESCRIPTION: Pichia anomala; overnight incubation; n.i. = no inhibition up to 67 μg/mL
METRIC_NAME: MIC

INSERT INTO assay_data (compound, metric_name, result_value) VALUES
  ('CC(C)=CCC(CC1=CC(=O)OC1)C(=O)O (stereo not drawn) [Compound 2, vibralactones J]', 'MIC', 'n.i.'),
  ('CC(C)=CCC(/C=C(\CO)CCO)C(=O)O (stereo not drawn) [Compound 3, sterepinic acid A]', 'MIC', 'n.i.'),
  ('COc1ccc(C(=O)C(C)O)cc1 (stereo not drawn) [Compound 12, 2-hydroxy-(4′-methoxy)-propiophenone]', 'MIC', 'n.i.');

* * *

- Tested on: human lung carcinoma (A549)
- EXPERIMENT_DESCRIPTION: Cytotoxicity (MTT) assay, A549
- Type: cell-based
- CONDITION_DESCRIPTION: A549, read-out: IC50, positive control epothilone B
pIC50: −log10 of the molar value.
METRIC_NAME: pIC50

INSERT INTO measurements (compound, result_value) VALUES
  ('C/C(=C\c1csc(C)n1)[C@@H]1C[C@@H]2O[C@]2(C)CCC[C@H](C)[C@H](O)[C@@H](C)C(=O)C(C)(C)[C@@H](O)CC(=O)O1 [epothilone B, Epothilone B, reference compound]', 10.30);

* * *

- Test system: human breast adenocarcinoma (MCF-7)
- EXPERIMENT_DESCRIPTION: Cytotoxicity (MTT) assay, MCF-7
- Assay type: cell-based
- CONDITION_DESCRIPTION: MCF7, read-out: IC50, positive control epothilone B
pIC50: −log10 of the molar value.
METRIC_NAME: pIC50

INSERT INTO results (molecule, metric_name, result_value) VALUES
  ('C/C(=C\c1csc(C)n1)[C@@H]1C[C@@H]2O[C@]2(C)CCC[C@H](C)[C@H](O)[C@@H](C)C(=O)C(C)(C)[C@@H](O)CC(=O)O1 [epothilone B, Epothilone B, reference compound]', 'pIC50', 10.15);

* * *

- System: Escherichia coli (DSM 1116)
- EXPERIMENT_DESCRIPTION: Antimicrobial assay (MIC), E. coli
- Format: cell-based
- CONDITION_DESCRIPTION: overnight incubation, n.i. = no inhibition up to 67 μg/mL
METRIC_NAME: MIC

INSERT INTO assay_data (compound, assayed_target, result_value) VALUES
  ('CC(C)=CC[C@H]1C=C(CO)C=COC1=O [Compound 6, 1,5-secovibralactone]', 'Escherichia coli (DSM 1116)', 'n.i.'),
  ('CC1(C)CC2C=C(C=O)[C@]3(C=O)C[C@]3(C)C2C1 (single isomer, unassigned; (+)) [Compound 8, (+)-isovelleral]', 'Escherichia coli (DSM 1116)', 'n.i.'),
  ('CC(C)(O)[C@H]1C[C@@H](CC2=CC(=O)OC2)C(=O)O1 [Compound 4, vibralactones Z1]', 'Escherichia coli (DSM 1116)', 'n.i.'),
  ('COc1ccc([C@H](O)[C@H](C)O)cc1 [Compound 11, (4-methoxyphenyl)-1,2-propanediol]', 'Escherichia coli (DSM 1116)', 'n.i.'),
  ('CC(C)(O)[C@H]1C[C@H](CC2=CC(=O)OC2)C(=O)O1 [Compound 5, vibralactones Z2]', 'Escherichia coli (DSM 1116)', 'n.i.'),
  ('COc1ccc(C(=O)C(C)O)cc1 (stereo not shown) [Compound 12, 2-hydroxy-(4′-methoxy)-propiophenone]', 'Escherichia coli (DSM 1116)', 'n.i.'),
  ('CC(=O)O[C@@H]1CC2C3=C(C(C)C)CC[C@]3(C)CC[C@@]2(C)[C@@H](OC2OC[C@@H](O)[C@H](O)[C@H]2O)C=C1C=O (stereo partly shown) [Compound 7, erinacine P]', 'Escherichia coli (DSM 1116)', 'n.i.'),
  ('CC(C)=CCC(CC1=CC(=O)OC1)C(=O)O (stereo not shown) [Compound 2, vibralactones J]', 'Escherichia coli (DSM 1116)', 'n.i.'),
  ('CC(C)=CCC(/C=C(\CO)CCO)C(=O)O (stereo not shown) [Compound 3, sterepinic acid A]', 'Escherichia coli (DSM 1116)', 'n.i.'),
  ('CC(C)=CCc1cc(C=O)ccc1O [Compound 9]', 'Escherichia coli (DSM 1116)', 'n.i.');
